Hello, the source for this data is patent US20120135923A1, in case you need it.

# target: human melanocortin receptor subtype 4 (hMC4-R) (human) (UniProt P32245)
# Sequence (P32245 whole entry): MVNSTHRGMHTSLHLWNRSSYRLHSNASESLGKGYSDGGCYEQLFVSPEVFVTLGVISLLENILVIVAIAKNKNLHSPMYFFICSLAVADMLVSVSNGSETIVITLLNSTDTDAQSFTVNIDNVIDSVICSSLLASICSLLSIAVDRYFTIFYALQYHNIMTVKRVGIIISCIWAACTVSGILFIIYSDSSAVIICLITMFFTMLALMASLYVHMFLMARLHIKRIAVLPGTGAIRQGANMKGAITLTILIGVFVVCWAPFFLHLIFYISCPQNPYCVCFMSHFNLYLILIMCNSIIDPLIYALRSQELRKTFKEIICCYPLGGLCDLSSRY
# procedure.details: [125I]-NDP-α-MSH competition, membranes
pKi: −log10 of the molar value. Bridge positions count the residues as written; N and C are the ends. Square brackets hold non-standard residues; d marks the D form. Ends that are not written are not given here. Orn = NCCC[C@H](N)C(=O)O; Dab = NCC[C@H](N)C(=O)O; Dap = NC[C@H](N)C(=O)O
List of pKi values.

binder	pKi
E[dA]H[dF]RW[Dap]-NH2 (lactam 1-7 (inferred); also: hydantoin ring from C(O) with Glu1-D-Ala2) [c[Hydantoin(C(O)-(Glu-D-Ala))-His-D-Phe-Arg-Trp-Dap]-NH2]	8.30
D[dA]H[dF]RW[Dap]-NH2 (lactam 1-7; also: hydantoin ring from C(O) with Asp1-D-Ala2) [c[Hydantoin(C(O)-(Asp-D-Ala))-His-D-Phe-Arg-Trp-Dap]-NH2]	7.70
D[dA]H[dF]RW[Orn]-NH2 (lactam 1-7; also: hydantoin ring from C(O) with Asp1-D-Ala2) [c[Hydantoin(C(O)-(Asp-D-Ala))-His-D-Phe-Arg-Trp-Orn]-NH2]	8.11
E[dA]H[dF]RWK-NH2 (lactam 1-7 (inferred); also: hydantoin ring from C(O) with Glu1-D-Ala2) [c[Hydantoin(C(O)-(Glu-D-Ala))-His-D-Phe-Arg-Trp-Lys]-NH2]	7.34
E[dA]H[dF]RW[Orn]-NH2 (lactam 1-7 (inferred); also: hydantoin ring from C(O) with Glu1-D-Ala2) [c[Hydantoin(C(O)-(Glu-D-Ala))-His-D-Phe-Arg-Trp-Orn]-NH2]	7.28
E[dA]H[dF]RW[Dab]-NH2 (lactam 1-7; also: hydantoin ring from C(O) with Glu1-D-Ala2) [c[Hydantoin(C(O)-(Glu-D-Ala))-His-D-Phe-Arg-Trp-Dab]-NH2]	7.90
G[dR]C[dA]H[dF]RWC-NH2 (bridge N-2 via C(O) hydantoin; disulfide 3-9; not fully specified) [Hydantoin(C(O)-(Gly-D-Arg))-c(Cys-D-Ala-His-D-Phe-Arg-Trp-Cys)-NH2]	8.22
